Target: Chk2 (Homo sapiens)
Sequence (O96017 whole entry): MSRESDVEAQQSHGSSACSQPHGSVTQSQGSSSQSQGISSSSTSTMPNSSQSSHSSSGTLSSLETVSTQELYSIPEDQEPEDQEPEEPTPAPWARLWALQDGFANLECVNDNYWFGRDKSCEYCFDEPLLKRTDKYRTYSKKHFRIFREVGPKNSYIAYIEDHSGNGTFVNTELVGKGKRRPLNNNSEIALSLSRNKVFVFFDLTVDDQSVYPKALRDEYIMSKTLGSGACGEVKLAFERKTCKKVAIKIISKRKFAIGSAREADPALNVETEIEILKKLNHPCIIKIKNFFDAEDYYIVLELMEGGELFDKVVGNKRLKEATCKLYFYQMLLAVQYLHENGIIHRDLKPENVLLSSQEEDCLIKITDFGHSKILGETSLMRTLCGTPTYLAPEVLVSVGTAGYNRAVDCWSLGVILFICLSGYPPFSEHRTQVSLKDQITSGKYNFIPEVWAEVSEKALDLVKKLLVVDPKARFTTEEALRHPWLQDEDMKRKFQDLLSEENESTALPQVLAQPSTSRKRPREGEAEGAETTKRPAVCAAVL
Assay: IMAP Chk2 high-throughput screening assay (fluorescence polarization)
Type: biochemical
pEC50: −log10 of the molar value.
measure: pEC50

**Query** Could you share which pEC50 value was measured for O=[N+]([O-])c1ccc2c(c1)C(=NO)c1cc([N+](=O)[O-])ccc1-2 ?
**Result** 5.40 to 6.10
